# Assay System: 20S proteasome, chymotrypsin-like activity (β5 subunit) (Oryctolagus cuniculus, UniProt G1T4Q9)
# Sequence (G1T4Q9 1-263): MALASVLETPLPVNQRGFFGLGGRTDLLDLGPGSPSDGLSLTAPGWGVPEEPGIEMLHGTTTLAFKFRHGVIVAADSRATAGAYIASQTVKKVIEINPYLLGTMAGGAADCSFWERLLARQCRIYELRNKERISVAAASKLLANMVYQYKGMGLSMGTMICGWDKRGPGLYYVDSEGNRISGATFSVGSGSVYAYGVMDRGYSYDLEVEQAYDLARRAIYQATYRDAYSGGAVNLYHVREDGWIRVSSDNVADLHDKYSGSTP
# Assay Overview: fluorogenic Suc-LLVY-AMC hydrolysis by purified […] proteasome, […] h
IC50 values, listed per item
The answer is to be given in µM; state only the numeric part.

Would you please look over these solved cases?
CC(C)[C@H]1C(=O)[O][Cu-3]23([O]c4ccc5ccccc5c4C=[N+]12)[n+]1cccc2ccc4ccc[n+]3c4c21 [C3, [Cu(L2)(Phen)]·3H2O]	11.3
CC(C)[C@H]1C(=O)[O][Cu-3]23([O]c4ccc5ccccc5c4C=[N+]12)[n+]1ccccc1-c1cccc[n+]13 [C4, [Cu(L2)(Bpy)]·3H2O]	42.5
COc1cccc2c1[O][Cu-3]13([O]C(=O)C(CCSC)[N+]1=C2)[n+]1cccc2ccc4ccc[n+]3c4c21 (stereo not shown) [C1, [Cu(L1)(Phen)]·9H2O]	13.3

Would you kindly look at the next entry?
Query: IC50; subject: COc1cccc2c1[O][Cu-3]13([O]C(=O)[C@H](CCSC)[N+]1=C2)[n+]1ccccc1-c1cccc[n+]13 [C2, [Cu(L1)(Bpy)]·3H2O]
46.5
